The measurements presented in this section are drawn from ChEMBL document CHEMBL1143493.

System: Plasmodium falciparum
Assay: Minimum inhibitory concentration against Plasmodium falciparum NF-54 after 40 hrs
Type: functional
REPORTED_ENDPOINT: MIC (µg/mL)

[[record]]
input_smiles = "COc1cc(-c2cc(SC)n(-c3nc(N4CCN(Cc5ccccc5)CC4)nc(N4CCN(Cc5ccccc5)CC4)n3)n2)cc(OC)c1OC"
target = "Plasmodium falciparum"
reported_endpoint = "MIC"
unit_symbol = "µg/mL"
relation_sign = "="
number = 50

[[record]]
input_smiles = "COc1ccc(-c2cc(SC)n(-c3nc(N4CCc5ccccc5C4)nc(N4CCc5ccccc5C4)n3)n2)cc1OC"
target = "Plasmodium falciparum"
reported_endpoint = "MIC"
unit_symbol = "µg/mL"
relation_sign = "="
number = 50

[[record]]
input_smiles = "COc1ccc(-c2cc(SC)n(-c3nc(NCc4ccccc4)nc(NCc4ccccc4)n3)n2)cc1OC"
target = "Plasmodium falciparum"
reported_endpoint = "MIC"
unit_symbol = "µg/mL"
relation_sign = ">"
number = 50

[[record]]
input_smiles = "COc1ccc(-c2cc(SC)n(-c3nc(N4CCN(c5ccccc5)CC4)nc(N4CCN(c5ccccc5)CC4)n3)n2)cc1OC"
target = "Plasmodium falciparum"
reported_endpoint = "MIC"
unit_symbol = "µg/mL"
relation_sign = "="
number = 10

[[record]]
input_smiles = "COc1ccc(-c2cc(SC)n(-c3nc(NCCN4CCOCC4)nc(NCCN4CCOCC4)n3)n2)cc1OC"
target = "Plasmodium falciparum"
reported_endpoint = "MIC"
unit_symbol = "µg/mL"
relation_sign = "="
number = 2

[[record]]
input_smiles = "COc1cc(-c2cc(SC)n(-c3nc(Nc4ccccc4C)nc(Nc4ccccc4C)n3)n2)cc(OC)c1OC"
target = "Plasmodium falciparum"
reported_endpoint = "MIC"
unit_symbol = "µg/mL"
relation_sign = "="
number = 1

[[record]]
input_smiles = "COc1cc(-c2cc(SC)n(-c3nc(NCCN4CCOCC4)nc(NCCN4CCOCC4)n3)n2)cc(OC)c1OC"
target = "Plasmodium falciparum"
reported_endpoint = "MIC"
unit_symbol = "µg/mL"
relation_sign = "="
number = 1

[[record]]
input_smiles = "COc1cc(-c2cc(SC)n(-c3nc(N4CCCCC4)nc(N4CCCCC4)n3)n2)cc(OC)c1OC"
target = "Plasmodium falciparum"
reported_endpoint = "MIC"
unit_symbol = "µg/mL"
relation_sign = ">"
number = 50

[[record]]
input_smiles = "COc1ccc(-c2cc(SC)n(-c3nc(N4CCOCC4)nc(N4CCOCC4)n3)n2)cc1OC"
target = "Plasmodium falciparum"
reported_endpoint = "MIC"
unit_symbol = "µg/mL"
relation_sign = "="
number = 10

[[record]]
input_smiles = "COc1ccccc1CN1CCN(c2nc(N3CCN(Cc4ccccc4OC)CC3)nc(-n3nc(-c4cc(OC)c(OC)c(OC)c4)cc3SC)n2)CC1"
target = "Plasmodium falciparum"
reported_endpoint = "MIC"
unit_symbol = "µg/mL"
relation_sign = "="
number = 50

[[record]]
input_smiles = "COc1ccc(-c2cc(SC)n(-c3nc(N4CCN(Cc5ccccc5)CC4)nc(N4CCN(Cc5ccccc5)CC4)n3)n2)cc1OC"
target = "Plasmodium falciparum"
reported_endpoint = "MIC"
unit_symbol = "µg/mL"
relation_sign = "="
number = 2

[[record]]
input_smiles = "COc1ccccc1CN1CCN(c2nc(N3CCN(Cc4ccccc4OC)CC3)nc(-n3nc(-c4ccc(OC)c(OC)c4)cc3SC)n2)CC1"
target = "Plasmodium falciparum"
reported_endpoint = "MIC"
unit_symbol = "µg/mL"
relation_sign = "="
number = 50

[[record]]
input_smiles = "COc1cc(-c2cc(SC)n(-c3nc(N4CCOCC4)nc(N4CCOCC4)n3)n2)cc(OC)c1OC"
target = "Plasmodium falciparum"
reported_endpoint = "MIC"
unit_symbol = "µg/mL"
relation_sign = ">"
number = 50

[[record]]
input_smiles = "COc1ccc(-c2cc(SC)n(-c3nc(N4CCCCC4)nc(N4CCCCC4)n3)n2)cc1OC"
target = "Plasmodium falciparum"
reported_endpoint = "MIC"
unit_symbol = "µg/mL"
relation_sign = "="
number = 10

[[record]]
input_smiles = "COc1cc(-c2cc(SC)n(-c3nc(N4CCc5ccccc5C4)nc(N4CCc5ccccc5C4)n3)n2)cc(OC)c1OC"
target = "Plasmodium falciparum"
reported_endpoint = "MIC"
unit_symbol = "µg/mL"
relation_sign = ">"
number = 50

[[record]]
input_smiles = "COc1cc(-c2cc(SC)n(-c3nc(NCCCN4CCOCC4)nc(NCCCN4CCOCC4)n3)n2)cc(OC)c1OC"
target = "Plasmodium falciparum"
reported_endpoint = "MIC"
unit_symbol = "µg/mL"
relation_sign = "="
number = 10

[[record]]
input_smiles = "COc1ccc(-c2cc(SC)n(-c3nc(Nc4ccccc4C)nc(Nc4ccccc4C)n3)n2)cc1OC"
target = "Plasmodium falciparum"
reported_endpoint = "MIC"
unit_symbol = "µg/mL"
relation_sign = "="
number = 10

